pEC50 values, listed per item
Target: T1, human activated protein C (human, UniProt P04070 43-197; P04070 212-461)
T1 construct: also called human aPC; human APC
Test: ELISA, coated antigen
pEC50: −log10 of the molar value.

# binder, pEC50
data = [
    ("Hu1573-12 (antibody, V domains shown, Humanized IgG, human gamma 1 / kappa constant regions by vectors pCP-hCg1 and pCP-hck; also called H1573VH.1E + H1573Vk.2) VH: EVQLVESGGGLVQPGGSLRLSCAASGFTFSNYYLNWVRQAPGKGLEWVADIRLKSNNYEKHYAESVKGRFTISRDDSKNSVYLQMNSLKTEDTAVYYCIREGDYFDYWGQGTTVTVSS VL: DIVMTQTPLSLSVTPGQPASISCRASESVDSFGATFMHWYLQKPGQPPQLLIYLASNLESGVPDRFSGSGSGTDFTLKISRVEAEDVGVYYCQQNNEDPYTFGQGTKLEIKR", 9.47),
    ("Hu1573-16 (antibody, V domains shown, Humanized IgG, human gamma 1 / kappa constant regions by vectors pCP-hCg1 and pCP-hck; also called H1573VH.1F + H1573Vk.2A) VH: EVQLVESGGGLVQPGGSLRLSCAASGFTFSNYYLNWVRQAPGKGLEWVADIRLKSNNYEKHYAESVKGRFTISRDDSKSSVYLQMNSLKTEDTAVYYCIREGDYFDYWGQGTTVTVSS VL: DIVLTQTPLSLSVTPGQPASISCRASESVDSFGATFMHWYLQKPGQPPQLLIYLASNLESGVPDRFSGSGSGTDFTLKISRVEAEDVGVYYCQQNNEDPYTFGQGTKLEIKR", 9.63),
    ("Hu1573-5 (antibody, V domains shown, Humanized IgG, human gamma 1 / kappa constant regions by vectors pCP-hCg1 and pCP-hck; also called H1573VH.1B + H1573Vk.2B) VH: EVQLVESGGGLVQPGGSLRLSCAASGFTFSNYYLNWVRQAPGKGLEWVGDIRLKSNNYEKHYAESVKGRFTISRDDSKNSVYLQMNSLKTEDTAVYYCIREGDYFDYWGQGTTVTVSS VL: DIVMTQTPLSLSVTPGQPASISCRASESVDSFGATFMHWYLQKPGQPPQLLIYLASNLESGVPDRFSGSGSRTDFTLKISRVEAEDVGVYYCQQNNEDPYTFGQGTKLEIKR", 9.26),
]
